System: Cyclin-dependent kinase
Test: Cyclin-dependent kinase inhibition, % inhibition at 10 nM (library Examples 99-270)
Type: biochemical
Details: 10 nM compound
Field: % Inhib @ 10 nM. Provide a value for each of the compounds that follow.
Provide the reading as a plain figure in %.

Value lookup for % Inhib @ 10 nM; key = CCNCc1cncc(-c2ccc3[nH]nc(-c4ncc(C(=O)NC5CCOCC5)[nH]4)c3c2)c1C
57

Value lookup for % Inhib @ 10 nM; key = CCNCc1cncc(-c2ccc3[nH]nc(-c4ncc(C(=O)NCCc5ccccn5)[nH]4)c3c2)c1C
81

Value lookup for % Inhib @ 10 nM; key = CCNCc1cncc(-c2ccc3[nH]nc(-c4ncc(C(=O)N5CCc6ncsc6C5)[nH]4)c3c2)c1C
79

Value lookup for % Inhib @ 10 nM; key = CCNCc1cncc(-c2ccc3[nH]nc(-c4ncc(C(=O)N5CCN(c6ccncc6)CC5)[nH]4)c3c2)c1C
30

* * *

Field: % Inhib @ 10 nM. Provide a value for each of the compounds that follow.
Test system: Cyclin-dependent kinase
Assay: Cyclin-dependent kinase inhibition, % inhibition at 10 nM (library Examples 99-270)
Format: biochemical
Details: 10 nM compound
Protocol: Cyclin-dependent kinase activity was measured by quantifying the enzyme-catalyzed, time-dependent incorporation of radioactive phosphate from [^32P]ATP or [^33P]ATP into a protein substrate. […] The phosphorylated substrate was then captured on a nitrocellulose or phosphocellulose membrane using a 96-well filtration manifold, and unincorporated radioactivity was removed by repeated washing with 0.85% phosphoric acid. Radioactivity was quantified by exposing the dried membranes to a phosphorimager. […]
Provide the reading as a plain figure in %.

Value lookup for % Inhib @ 10 nM; key = CCNCc1cncc(-c2ccc3[nH]nc(-c4ncc(C(=O)N5CCC(C#N)(c6ccccc6)CC5)[nH]4)c3c2)c1C
61

Value lookup for % Inhib @ 10 nM; key = CCNCc1cncc(-c2ccc3[nH]nc(-c4ncc(C(=O)NCCC5CCN(Cc6ccccc6)CC5)[nH]4)c3c2)c1C
30

Value lookup for % Inhib @ 10 nM; key = CCNCc1cncc(-c2ccc3[nH]nc(-c4ncc(C(=O)N5CCN(c6ncccc6C#N)CC5)[nH]4)c3c2)c1C
62

Value lookup for % Inhib @ 10 nM; key = CCNCc1cncc(-c2ccc3[nH]nc(-c4ncc(C(=O)N5CCCC(COCC6CC6)C5)[nH]4)c3c2)c1C (stereo not shown)
34

* * *

Tested on: Cyclin-dependent kinase
Assay: Cyclin-dependent kinase inhibition, % inhibition at 10 nM (library Examples 99-270)
Assay type: biochemical
Conditions: 10 nM compound
Use Fulfilled when the recorded % Inhib @ 10 nM is no lower than 60%; use Not fulfilled when it is lower.

Textbook exercise: given the entry CCNCc1cncc(-c2ccc3[nH]nc(-c4ncc(C(=O)NCc5ccc(C(=O)OC)cc5)[nH]4)c3c2)c1C [Example 194] , state whether its % Inhib @ 10 nM is greater than or equal to 60%.
Fulfilled

Textbook exercise: given the entry CCNCc1cncc(-c2ccc3[nH]nc(-c4ncc(C(=O)NCC(O)COc5ccccc5)[nH]4)c3c2)c1C (stereo not shown) [Example 249] , state whether its % Inhib @ 10 nM is greater than or equal to 60%.
Fulfilled

Textbook exercise: given the entry CCNCc1cncc(-c2ccc3[nH]nc(-c4ncc(C(=O)N5CCC6(CC5)CNC(=O)C6)[nH]4)c3c2)c1C [Example 205] , state whether its % Inhib @ 10 nM is greater than or equal to 60%.
Not fulfilled

Textbook exercise: given the entry CCNCc1cncc(-c2ccc3[nH]nc(-c4ncc(C(=O)N5CCN(CC(=O)NC(C)C)CC5)[nH]4)c3c2)c1C [Example 118] , state whether its % Inhib @ 10 nM is greater than or equal to 60%.
Not fulfilled

Textbook exercise: given the entry CCNCc1cncc(-c2ccc3[nH]nc(-c4ncc(C(=O)N5Cc6ccccc6C(c6ccccn6)C5)[nH]4)c3c2)c1C (stereo not shown) [Example 218] , state whether its % Inhib @ 10 nM is greater than or equal to 60%.
Not fulfilled

Textbook exercise: given the entry CCNCc1cncc(-c2ccc3[nH]nc(-c4ncc(C(=O)N5CCNC(=O)CC5)[nH]4)c3c2)c1C [Example 231] , state whether its % Inhib @ 10 nM is greater than or equal to 60%.
Fulfilled

Textbook exercise: given the entry CCNCc1cncc(-c2ccc3[nH]nc(-c4ncc(C(=O)NC(Cc5cc(C)no5)C5CC5)[nH]4)c3c2)c1C (stereo not shown) [Example 160] , state whether its % Inhib @ 10 nM is greater than or equal to 60%.
Not fulfilled
